The entries that follow carry pIC50 values tested on Histone deacetylase 9 (Homo sapiens, UniProt Q9UKV0), drawn from several published reports.
Sequence (Q9UKV0 whole entry): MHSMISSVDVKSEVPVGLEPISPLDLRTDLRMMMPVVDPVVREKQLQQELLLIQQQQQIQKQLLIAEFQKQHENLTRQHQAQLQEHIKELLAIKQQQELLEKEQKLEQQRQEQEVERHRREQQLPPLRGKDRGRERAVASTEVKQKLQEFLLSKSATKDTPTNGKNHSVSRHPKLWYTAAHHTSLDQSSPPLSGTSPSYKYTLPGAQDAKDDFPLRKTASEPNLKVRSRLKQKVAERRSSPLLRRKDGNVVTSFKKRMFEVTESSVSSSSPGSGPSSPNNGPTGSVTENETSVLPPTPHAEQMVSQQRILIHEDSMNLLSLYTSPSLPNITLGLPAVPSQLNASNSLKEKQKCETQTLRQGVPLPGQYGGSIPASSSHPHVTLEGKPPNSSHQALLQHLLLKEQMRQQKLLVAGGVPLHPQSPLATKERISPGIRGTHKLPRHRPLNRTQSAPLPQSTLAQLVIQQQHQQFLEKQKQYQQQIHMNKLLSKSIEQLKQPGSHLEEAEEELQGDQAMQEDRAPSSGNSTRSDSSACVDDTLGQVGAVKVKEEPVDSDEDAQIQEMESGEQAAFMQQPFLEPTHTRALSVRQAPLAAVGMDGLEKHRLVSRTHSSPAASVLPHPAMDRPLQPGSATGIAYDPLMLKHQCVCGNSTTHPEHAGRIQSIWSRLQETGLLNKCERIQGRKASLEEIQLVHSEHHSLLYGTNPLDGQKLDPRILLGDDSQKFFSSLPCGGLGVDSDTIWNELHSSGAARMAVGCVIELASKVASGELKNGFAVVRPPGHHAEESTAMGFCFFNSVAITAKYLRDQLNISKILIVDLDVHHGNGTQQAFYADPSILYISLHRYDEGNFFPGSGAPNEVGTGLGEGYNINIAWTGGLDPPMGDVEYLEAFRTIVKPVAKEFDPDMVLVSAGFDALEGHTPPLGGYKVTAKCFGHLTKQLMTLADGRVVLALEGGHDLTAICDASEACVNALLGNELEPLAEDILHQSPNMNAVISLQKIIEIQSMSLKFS
Units for pIC50: none; it is -log10 of a concentration expressed in mol/L.

Look up pIC50 of CC1(C)CC(=O)Nc2ccc(C(=O)NCc3ccc(/C=C/C(=O)NO)cc3)cc21 and report it.
7.43

For Cn1cc(-c2ccc(S(=O)(=O)n3ccc(/C=C/C(=O)Nc4ccccc4N)c3)cc2)cn1 , write its pIC50.
4.30

Could you please provide reported pIC50 for O=C(/C=C/c1ccc(-c2ccc(O)c(C34CC5CC(CC(C5)C3)C4)c2)cc1)NO ? Thanks!
4.38

Using the record for O=C(/C=C/c1cccc(S(=O)(=O)n2ccc3cccnc32)c1)NO , state its measured pIC50.
5.27

Please report pIC50 for the following compound: O=C(CCCCCCC(=O)Nc1ccc2[nH]c(=O)ccc2c1)NO
7.24

Specify reported pIC50 for the compound shown: Nc1ccccc1NC(=O)CCCCCC(c1c[nH]c2ccccc12)c1c[nH]c2ccccc12
4.30

For the compound CC(CCCCCC(=O)NO)n1cc(-c2ncnc3[nH]ccc23)cn1 (stereo not given) , give its reported pIC50.
5.07
